Recorded measurements of Minimal inhibitory concentration (MIC), one per entry
System: S. epidermidis B374
Assay: MIC/MBC microdilution
Format: cell-based, Staphylococcus epidermidis
Details: S. epidermidis B374; 24 h, 37 °C; >90% growth inhibition
Marks after values point to notes of the source that are not given here.
Property: Minimal inhibitory concentration (MIC)

                            compound_smiles                                property          result
0  CCCCCCCCCCCC(=O)N(C)CCC[N+](C)(C)C.[Br-]  Minimal inhibitory concentration (MIC)     640 *640 µM
1  CC(=O)[O-].CCCCCCCCCCCCCCCC(=O)N(C)CCC[N+](C)(C)C  Minimal inhibitory concentration (MIC)       40 *40 µM
2  CCCCCCCCCCCCCCCC(=O)N(C)CCC[N+](C)(C)C.[Br-]  Minimal inhibitory concentration (MIC)       10 *10 µM
3  CCCCCCCCCCCCCC(=O)N(C)CCC[N+](C)(C)C.[Br-]  Minimal inhibitory concentration (MIC)  640 * > 640 µM
4  CC(=O)[O-].CCCCCCCCCCCCCC(=O)N(C)CCC[N+](C)(C)C  Minimal inhibitory concentration (MIC)       40 *40 µM

----------
System: S. epidermidis B374
Experiment: MIC/MBC microdilution
Format: cell-based, Staphylococcus epidermidis
Details: S. epidermidis B374; 99.9% reduction
Property: Minimal bactericidal concentration (*MBC)

>>> print(df.to_string())
                                   molecule          result
0  CCCCCCCCCCCC(=O)N(C)CCC[N+](C)(C)C.[Br-] [BrC12]     640 *640 µM
1  CC(=O)[O-].CCCCCCCCCCCCCC(=O)N(C)CCC[N+](C)(C)C [AcC14]       40 *40 µM
2  CC(=O)[O-].CCCCCCCCCCCCCCCC(=O)N(C)CCC[N+](C)(C)C [AcC16]       40 *40 µM
3  CCCCCCCCCCCCCC(=O)N(C)CCC[N+](C)(C)C.[Br-] [BrC14]  640 * > 640 µM
4  CCCCCCCCCCCCCCCC(=O)N(C)CCC[N+](C)(C)C.[Br-] [BrC16]       10 *10 µM

----------
System: Salmonella typhimurium TA100
Assay: Mutagenicity (Ames test)
Assay type: cell-based
Settings: ¼ MIC
Property: Mutagenicity index

>>> print(df.to_string())
                            compound_smiles            property  numeric_value
0  CCCCCCCCCCCCN(C)CCC[N+](C)(C)C.COC(=O)[O-]  Mutagenicity index           0.74
1  CC(=O)[O-].CCCCCCCCCCCCCCCC(=O)N(C)CCC[N+](C)(C)C  Mutagenicity index           0.54
2  CC(=O)[O-].CCCCCCCCCCCCCC(=O)N(C)CCC[N+](C)(C)C  Mutagenicity index           0.97

----------
Test system: S. aureus ATCC 6538
Experiment: MIC/MBC microdilution
Type: cell-based, Staphylococcus aureus
Conditions: S. aureus ATCC 6538; 99.9% reduction
Procedure: The minimum inhibitory concentration (MIC) of the tested monomeric QAS was performed using the microdilution method according to CLSI recommendation (M27-A3). Concentrations from 10 to 1280 µM were analyzed. Strains were incubated with or without compounds (growth control) for 24 h at 37 °C. Three independent replicates were performed. […] Optical density was measured at λ = 590 nm using a 96-well microplate reader (Bio-Rad Universal Hood II). […]
Property: Minimal bactericidal concentration (*MBC)

>>> df
                            compound_smiles         result
0  CCCCCCCCCCCCCC(=O)N(C)CCC[N+](C)(C)C.[Br-]    320 *320 µM
1  CCCCCCCCCCCCCCN(C)CCC[N+](C)(C)C.COC(=O)[O-]      80 *80 µM
2  CCCCCCCCCCCC(=O)N(C)CCC[N+](C)(C)C.[Br-]  1280 *1280 µM
3  CCCCCCCCCCCCCCCC(=O)N(C)CCC[N+](C)(C)C.[Br-]    320 *320 µM
4  CC(=O)[O-].CCCCCCCCCCCCCCCC(=O)N(C)CCC[N+](C)(C)C      80 *80 µM
5  CCCCCCCCCCCCCCCCN(C)CCC[N+](C)(C)C.COC(=O)[O-]      10 *10 µM

----------
Tested on: Salmonella typhimurium TA98
Assay: Mutagenicity (Ames test)
Format: cell-based
Details: ½ MIC
Recorded measurements of Mutagenicity index, one per entry
Property: Mutagenicity index

In [3]: df
Out[3]:
                            compound_smiles  numeric_value
0  CCCCCCCCCCCC(=O)N(C)CCC[N+](C)(C)C.[Br-]           1.98
1  CCCCCCCCCCCCCC(=O)N(C)CCC[N+](C)(C)C.[Br-]           0.84
2  CC(=O)[O-].CCCCCCCCCCCCCCCC(=O)N(C)CCC[N+](C)(C)C           1.11
3  CCCCCCCCCCCCN(C)CCC[N+](C)(C)C.COC(=O)[O-]           0.92
4  CC(=O)[O-].CCCCCCCCCCCCCC(=O)N(C)CCC[N+](C)(C)C           1.01
5  CCCCCCCCCCCCCCCC(=O)N(C)CCC[N+](C)(C)C.[Br-]           1.84
6  CC(=O)[O-].CCCCCCCCCCCC(=O)N(C)CCC[N+](C)(C)C           0.91
7  CCCCCCCCCCCCCCN(C)CCC[N+](C)(C)C.COC(=O)[O-]           0.95
8  CCCCCCCCCCCCCCCCN(C)CCC[N+](C)(C)C.COC(=O)[O-]           0.19

----------
Recorded measurements of Minimal inhibitory concentration (MIC), one per entry
Test system: S. aureus MRSA R98
Test: MIC/MBC microdilution
Type: cell-based, Staphylococcus aureus
Settings: 24 h, 37 °C, >90% growth inhibition
Property: Minimal inhibitory concentration (MIC)

>>> print(df.to_string())
                                   compound       result
0  CCCCCCCCCCCC(=O)N(C)CCC[N+](C)(C)C.[Br-] [BrC12]  640 *640 µM
1  CCCCCCCCCCCCCC(=O)N(C)CCC[N+](C)(C)C.[Br-] [BrC14]  320 *320 µM
2  CCCCCCCCCCCCCCCC(=O)N(C)CCC[N+](C)(C)C.[Br-] [BrC16]  320 *320 µM
3  CCCCCCCCCCCCCCN(C)CCC[N+](C)(C)C.COC(=O)[O-] [MeC14]    80 *80 µM
4  CCCCCCCCCCCCN(C)CCC[N+](C)(C)C.COC(=O)[O-] [MeC12]  640 *640 µM
5  CCCCCCCCCCCCCCCCN(C)CCC[N+](C)(C)C.COC(=O)[O-] [MeC16]    40 *40 µM
6  CC(=O)[O-].CCCCCCCCCCCCCCCC(=O)N(C)CCC[N+](C)(C)C [AcC16]    10 *10 µM

----------
Experiment: Critical micelle concentration by conductometric measurements
Assay type: physicochemical
Details: aqueous solution, 25 °C
Property: CMC (mol/L)

                            compound_smiles  property  value_units  numeric_value
0  CC(=O)[O-].CCCCCCCCCCCC(=O)N(C)CCC[N+](C)(C)C       CMC        mol/L          0.018
1  CCCCCCCCCCCCCCN(C)CCC[N+](C)(C)C.COC(=O)[O-]       CMC        mol/L         0.0041
2  CCCCCCCCCCCCCCCCN(C)CCC[N+](C)(C)C.COC(=O)[O-]       CMC        mol/L         0.0012
3  CC(=O)[O-].CCCCCCCCCCCCCCCC(=O)N(C)CCC[N+](C)(C)C       CMC        mol/L         0.0016
4  CCCCCCCCCCCCCCCC(=O)N(C)CCC[N+](C)(C)C.[Br-]       CMC        mol/L        0.00073

----------
Recorded measurements of Minimal bactericidal concentration (*MBC), one per entry
System: E. coli H64
Experiment: MIC/MBC microdilution
Format: cell-based, Escherichia coli
Conditions: E. coli H64; 99.9% reduction
Property: Minimal bactericidal concentration (*MBC)

>>> print(df.to_string())
                                   compound         result
0  CCCCCCCCCCCC(=O)N(C)CCC[N+](C)(C)C.[Br-] [BrC12]  1280 *1280 µM
1  CCCCCCCCCCCCN(C)CCC[N+](C)(C)C.COC(=O)[O-] [MeC12]    640 *640 µM
2  CCCCCCCCCCCCCC(=O)N(C)CCC[N+](C)(C)C.[Br-] [BrC14]    320 *320 µM
3  CCCCCCCCCCCCCCCCN(C)CCC[N+](C)(C)C.COC(=O)[O-] [MeC16]      80 *80 µM
4  CCCCCCCCCCCCCCCC(=O)N(C)CCC[N+](C)(C)C.[Br-] [BrC16]    160 *160 µM
5  CCCCCCCCCCCCCCN(C)CCC[N+](C)(C)C.COC(=O)[O-] [MeC14]      80 *80 µM
